- System: L1210 leukemia ip in BDF1 mice, survival T/C
- Test: NCI In Vivo Anticancer Drug Screen. Data for tumor model L1210 Leukemia (intraperitoneal) in B6D2F1 (BDF1) mice
- Experimental context: endpoint: mean survival time; dose: 400.0 mg/kg/injection; schedule: Q04DX003 (ip); vehicle: Klucel (hydroxypropylcellulose) (HPC); higher = longer survival
Toxic doses and inconclusive results are not listed.
Reported values of T/C for individual entries
Result type: T/C

[[record]]
compound = "CCOC(=O)c1cnc(C)nc1Nc1ccccc1I"
reported_value = "101 % of control"

[[record]]
compound = "O=S1(=O)CC(c2ccc(Cl)cc2)Nc2ccccc21 (stereo unspecified)"
reported_value = "92 % of control"

[[record]]
compound = "CCCCNC(=S)S"
reported_value = "104 % of control"

[[record]]
compound = "Cc1ccc(NC(N)=S)nc1"
reported_value = "99 % of control"

[[record]]
compound = "COc1ccc(C(C(N)=O)N2CCOCC2)cc1 (stereo unspecified)"
reported_value = "104 % of control"

[[record]]
compound = "CCOC(=O)C1(C(=O)O)CC2C(C)C=CC(C)C2C1 (stereo unspecified)"
reported_value = "91 % of control"

[[record]]
compound = "O=c1cc(NC(c2ccccc2)c2ccccc2)[nH]c(=O)[nH]1"
reported_value = "98 % of control"

[[record]]
compound = "Cn1c(=O)c2ccc[n+]([O-])c2n(C)c1=O"
reported_value = "107 % of control"

[[record]]
compound = "COC(=O)c1cccc(C)c1C(=O)c1ccccc1"
reported_value = "95 % of control"

[[record]]
compound = "CC(Oc1ccc([N+](=O)[O-])cc1Cl)C(=O)Nc1ccc(S(=O)(=O)F)cc1 (stereo unspecified)"
reported_value = "92 % of control"

[[record]]
compound = "CCCCCCCCCCP(=S)(CCCC)CCCC"
reported_value = "104 % of control"

